details: 293.15 K; 30000 kPa; Liquid; Vibrating tube method
Record form. Attribute: mass density. Fill in for each entry.
Reply numerically in kg/m3, unit not repeated.

Given the molecule CCCCCCCC[n+]1cccc(C)c1.F[B-](F)(F)F [N-octyl-3-methylpyridinium tetrafluoroborate] , what is its reported mass density?
1113.56

// returns reported mass density for input `CCC[n+]1ccccc1Oc1ccc(Cl)c[n+]1CCOS(=O)(=O)[O-].F[B-](F)(F)F`
1269.5

For the molecule CCCC[n+]1ccccc1.F[B-](F)(F)F [1-butylpyridinium tetrafluoroborate] , what mass density is on record?
1230.74

Fill in: mass density of CCCC[n+]1cccc(C)c1.N#C[N-]C#N [1-butyl-3-methylpyridinium dicyanamide] is ___
1063.56
